- protocol.text: Pharmacokinetics in ICR mice, plasma drug concentrations
- Assay type: in vivo
- applied.conditions: mouse, plasma, po; p.o. 10 mg/kg, 12 hour, ICR mice
endpoint: concentration at 12 h (ng/mL)
Provide the reading as a plain figure in ng/mL.

I have this compound here, NC1(CNc2nc(N3CCS(=O)(=O)c4ccccc4C3)nc3ccc(C(F)F)cc23)COC1 , and I need its recorded concentration at 12 h.
2.9

----------
- protocol.text: Pharmacokinetics in ICR mice, plasma drug concentrations
- Type: in vivo
- applied.conditions: ICR, po; p.o. 10 mg/kg, mouse plasma
- Description: The pharmacokinetics were further tested of Example 4 and Example 7 disclosed herein and Example 61-1 (Comparative Example 1) in patent WO2013020993 in ICR mice. A single intravenous injection (dose of 2 mg/kg) and a single oral administration (dose of 10 mg/kg) were taken respectively. Blood collection point: before administration, 5 min, 15 min, 30 min, 1 h, 2 h, 4 h, 8 h, 12 h, 24 h after administration. […]
endpoint: half-life (h)
Answer in h, number only, no unit symbol.

# compound.structure.string, half-life / h
records = [
    ("NC1(CNc2nc(N3CCS(=O)(=O)c4ccccc4C3)nc3ccc(C(F)F)cc23)COC1", 1.3),
]

I would be grateful if you could share the reported half-life for NC1CN(c2nc(N3CCS(=O)(=O)c4ccccc4C3)nc3ccc(C(F)F)cc23)C1 .
3.3

----------
- protocol.text: Pharmacokinetics in ICR mice, plasma drug concentrations
- Assay type: in vivo
- applied.conditions: ICR, po; p.o. 10 mg/kg, mouse plasma
Entries annotated with measured AUC(0-inf)
Give just the number in ng·h/mL; leave the unit off.

# compound.structure.string, val
measured = [
    ("NC1CN(c2nc(N3CCS(=O)(=O)c4ccccc4C3)nc3ccc(C(F)F)cc23)C1", 3780),
]

Now look at this entry.
Could you tell me which AUC(0-inf) is on file for NC1(CNc2nc(N3CCS(=O)(=O)c4ccccc4C3)nc3ccc(C(F)F)cc23)COC1 ?
481

----------
- protocol.text: Pharmacokinetics in ICR mice, plasma drug concentrations
- Format: in vivo
- applied.conditions: mouse, plasma, po; p.o. 10 mg/kg, 4 hour, ICR mice
endpoint: concentration at 4 h (ng/mL)
Quick note: give the figure in ng/mL, leave out the unit.

# compound.structure.string, concentration at 4 h, ng/mL
measured = [
    ("NC1(CNc2nc(N3CCS(=O)(=O)c4ccccc4C3)nc3ccc(C(F)F)cc23)COC1", 16.7),
]

Then this compound:
Which concentration at 4 h value is on record for NC1CN(c2nc(N3CCS(=O)(=O)c4ccccc4C3)nc3ccc(C(F)F)cc23)C1 ?
380

----------
- protocol.text: Pharmacokinetics in ICR mice, plasma drug concentrations
- Assay type: in vivo
- applied.conditions: mouse, plasma, po; p.o. 10 mg/kg, 0.083 hour, ICR mice
endpoint: concentration at 0.083 h (ng/mL)
Give the value, in units of ng/mL, as a plain number.

# compound, unit.annotation, val
rows = [
    ("NC1(CNc2nc(N3CCS(=O)(=O)c4ccccc4C3)nc3ccc(C(F)F)cc23)COC1 [Example 7]", "ng/mL", 233),
]

Attention now turns to another entry.
Bench note: what concentration at 0.083 h did NC1CN(c2nc(N3CCS(=O)(=O)c4ccccc4C3)nc3ccc(C(F)F)cc23)C1 [Example 4] show?
49.7
